assay: NCI Yeast Anticancer Drug Screen. Data for the sgs1 mgt1 strain (AID 161);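 further: 0% = growth of cultures given vehicle only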; settings: S. cerevisiae sgs1 mgt1 strain, stronger effect = higher value; at 50.0 µM unless noted
This is part of a sample that, as a whole, favours compounds with a hit. Of some 79,000 tested, about 15% had one in any assay.

{"COMPOUND": "COc1ccccc1/C=C1\\SC(=S)NC1=O", "UNIT_OF_MEASUREMENT": "%", "growth inhibition": -38.2}
{"COMPOUND": "CCOc1ccc(C(C)c2cc3c(cc2OCC(=O)O)OCO3)cc1 (stereo not given)", "UNIT_OF_MEASUREMENT": "%", "growth inhibition": -8.45}
{"COMPOUND": "Nc1nnc2nc(CC(=O)c3cccc([N+](=O)[O-])c3)/c(=C/C(=O)c3cccc([N+](=O)[O-])c3)n12", "UNIT_OF_MEASUREMENT": "%", "growth inhibition": 12.2}
{"COMPOUND": "Cc1ccc(N2C(=O)CC(N3CCCCC3)C2=O)cc1 (stereo not given)", "UNIT_OF_MEASUREMENT": "%", "growth inhibition": 68.2}
{"COMPOUND": "N#C/C(=C\\c1ccccc1)c1ccc(F)cc1", "UNIT_OF_MEASUREMENT": "%", "growth inhibition": 25.7}
{"COMPOUND": "CCC(=O)Cc1nc2n(c1O)/C(=N/C(=O)Nc1ccc(Cl)cc1)N=N2", "UNIT_OF_MEASUREMENT": "%", "growth inhibition": -2.9}
{"COMPOUND": "Cc1cccc(NC(=O)C(=O)C(C(=O)c2ccc3ccccc3c2)C2OC(=O)c3ccccc32)c1C (stereo not given)", "UNIT_OF_MEASUREMENT": "%", "growth inhibition": 13.5}
{"COMPOUND": "COc1cc(C)cc(C(=O)O)c1", "UNIT_OF_MEASUREMENT": "%", "growth inhibition": 7.3}
{"COMPOUND": "CC1([N+](=O)[O-])COC(Cc2ccccc2)OC1 (stereo not given)", "UNIT_OF_MEASUREMENT": "%", "growth inhibition": -16.9}
{"COMPOUND": "CC(=O)OCC1OC(n2c(-c3ccccc3)c(N=Nc3ccc(C)cc3)c(C)c(C#N)c2=S)C(OC(C)=O)C(OC(C)=O)C1OC(C)=O (stereo not given)", "UNIT_OF_MEASUREMENT": "%", "growth inhibition": -22.9}

###

assay: NCI Yeast Anticancer Drug Screen. Data for the mlh1 rad18 strain (AID 175); settings: S. cerevisiae mlh1 rad18 strain growth inhibition; at 5.0 µM (retest, dose inferred, filed as 0.5); stronger effect = higher value
This is part of a sample that, as a whole, favours compounds with a hit. Of some 79,000 tested, about 15% had one in any assay.
A collection of compounds and their measured growth inhibition

{"COMPOUND": "CC(C)C(C)(C)c1ccc(O)cc1", "growth inhibition [%]": 2}
{"COMPOUND": "Fc1ccc([I+]c2ccc(F)cc2)cc1", "growth inhibition [%]": 17}
{"COMPOUND": "CC(C)NC(=O)N/C=C(\\C#N)C(N)=O", "growth inhibition [%]": -39}
{"COMPOUND": "O=C(O)/C=C\\C(=O)Nc1cccc2ccccc12", "growth inhibition [%]": -35}
{"COMPOUND": "Oc1ccc(Cc2ccccc2Cl)c(O)c1", "growth inhibition [%]": -22}
{"COMPOUND": "NN1CCOC(c2ccccc2)C1 (stereo unspecified)", "growth inhibition [%]": -12}
{"COMPOUND": "N#CC(c1ccccc1)c1cccc2ccccc12 (stereo unspecified)", "growth inhibition [%]": -25}
{"COMPOUND": "N#CC(C#N)N=Nc1cc(Cl)ccc1Cl", "growth inhibition [%]": -2}
{"COMPOUND": "CCCCCCCCCCNC(=O)CI", "growth inhibition [%]": 8}
{"COMPOUND": "N#CC(C#N)N=Nc1ccc(Cl)cc1", "growth inhibition [%]": -1}
{"COMPOUND": "CC(=O)OC(C)C(=O)NCC(C)O (stereo unspecified)", "growth inhibition [%]": -33}

###

test: NCI Yeast Anticancer Drug Screen. Data for the bub3 strain (AID 167); settings: S. cerevisiae bub3 mutant strain; at 50.0 µM unless noted
This is part of a sample that, as a whole, favours compounds with a hit. Of some 79,000 tested, about 15% had one in any assay. The source made the active and inactive calls. No stated cut-off is given here; in the data, active means growth inhibition above about 70%; inactive means the rest.
Possible outcomes: label 1 (active), label 0 (inactive)

{"MOLECULE": "C/C(=N\\NC(=S)N1CCCCCC1)c1nccnc1C", "CLASS": "label 1"}
{"MOLECULE": "C=CCCC(=O)CC(=O)OCc1ccccc1", "CLASS": "label 0"}
{"MOLECULE": "OC(c1ccc(Cl)cc1)c1ccccn1 (stereo not given)", "CLASS": "label 0"}
{"MOLECULE": "O=C(O)Cc1ccc(O)cc1", "CLASS": "label 0"}
{"MOLECULE": "CC(CC(=O)Nc1ccccc1CC(c1c[nH]c2ccccc12)c1c[nH]c2ccccc12)C(=O)O (stereo not given)", "CLASS": "label 0"}
{"MOLECULE": "C(#Cc1ccccc1)COc1ccccc1", "CLASS": "label 0"}
{"MOLECULE": "Cc1ccc(NC(=O)CCCl)cc1", "CLASS": "label 0"}
{"MOLECULE": "O=C(COc1ccc(Cl)cc1)Nc1cc(Cl)c(Cl)cc1Cl", "CLASS": "label 0"}
{"MOLECULE": "COC(=O)c1cc2c(cc1/C=C/C=O)OCO2", "CLASS": "label 0"}
{"MOLECULE": "C(CCC1CO1)CC1CO1 (stereo not given)", "CLASS": "label 0"}
{"MOLECULE": "C=CCCCCCCCCCCCCCCCC", "CLASS": "label 0"}
{"MOLECULE": "CC(=O)NC(CCC(=O)O)C(=O)O (stereo not given)", "CLASS": "label 0"}
{"MOLECULE": "COc1ccc2c(c1)c(COC(C)=O)c(C)c[n+]2[O-]", "CLASS": "label 0"}
{"MOLECULE": "Oc1ccccc1-c1cc(-c2ccccc2)nc(NCCCNc2nc(-c3ccccc3)cc(-c3ccccc3O)n2)n1", "CLASS": "label 0"}
{"MOLECULE": "Cc1ccc(NC(=S)N2CCCC(C)C2)cc1C (stereo not given)", "CLASS": "label 0"}
{"MOLECULE": "COc1ccc(-c2sc(/N=C/c3ccc(N(C)CCC#N)cc3)c(C#N)c2C)cc1OC", "CLASS": "label 0"}
{"MOLECULE": "Cc1c(N(C)CN(C)c2c(C)n(C)n(-c3ccccc3)c2=O)c(=O)n(-c2ccccc2)n1C", "CLASS": "label 0"}
{"MOLECULE": "CC(=O)c1cccc(NC(=O)Nc2ccc(F)c([N+](=O)[O-])c2)c1", "CLASS": "label 0"}
{"MOLECULE": "O=C1c2ccccc2C(=O)N1c1ccc(Cc2ccc(N3C(=O)c4ccccc4C3=O)cc2)cc1", "CLASS": "label 0"}
{"MOLECULE": "CCOC(=O)C(Cc1cc(N)c(Oc2ccc(OC)cc2)c(N)c1)NC(C)=O (stereo not given)", "CLASS": "label 0"}
{"MOLECULE": "CN(C)C[C@@H]1C2C=CC(C2)[C@@H]1CO (stereo not given in full)", "CLASS": "label 0"}
{"MOLECULE": "CC1CCCCN1P(c1ccccc1)N1CCCCC1C (stereo not given)", "CLASS": "label 0"}
{"MOLECULE": "O=S(=O)(N/N=C1\\CC2CCC1C2)c1ccccc1 (stereo not given)", "CLASS": "label 0"}
{"MOLECULE": "CCCCCCC1(C)NC(=O)NC1=O (stereo not given)", "CLASS": "label 0"}
{"MOLECULE": "COc1ccc(C(CC(=O)C(C)(C)CN2CCCCC2)SCCS(=O)(=O)O)cc1 (stereo not given)", "CLASS": "label 0"}

###

experiment: NCI Yeast Anticancer Drug Screen. Data for the mec2-1 strain (AID 157); details: S. cerevisiae mec2-1 strain, stronger effect = higher value; at 50.0 µM unless noted
About 79,000 compounds went through this panel and 15% of them were active in at least one assay; those are over-represented in the sample as a whole.

{"COMPOUND": "Nc1ccc(S(=O)(=O)CCS(=O)(=O)c2ccc(N)cc2)cc1", "growth inhibition (%)": -4.5}
{"COMPOUND": "Cc1onc(-c2ccccc2)c1C(C)(O)c1ccccc1 (stereo not given)", "growth inhibition (%)": 11.2}
{"COMPOUND": "NC(=O)N/N=C(\\C(=O)C(=O)Nc1ccc(Cl)c(C(F)(F)F)c1)c1nc2ccc(C(=O)c3ccccc3)cc2[nH]c1=O", "growth inhibition (%)": -1.3}
{"COMPOUND": "COC(=O)C(=O)C(C(=O)C=C(C)C)C(=O)C(=O)Nc1ccc(C)cc1C (stereo not given)", "growth inhibition (%)": -17.5}
{"COMPOUND": "CCOc1ccccc1NC(=O)/C(=N\\NC(C)(C)C)C1C(=O)Nc2ccccc2S1=O (stereo not given)", "growth inhibition (%)": -27.9}

These entries and their values trace back to PubChem BioAssay (NCI).
